- System: PC-14
- procedure.text: relative viability (nuclei count vs DMSO), 5 days (fraction); higher = more cells survive
- test.conditions: first compound 0.3162 µM
outcome.measure: relative viability
Number, no unit, nothing else.

Recorded results for 3 compounds are shown here.
- compound: "NC(=O)Nc1cc(-c2cccc(F)c2)sc1C(=O)N[C@H]1CCCNC1 [AZD7762] + C[C@@H](Oc1cc(-c2cnn(C3CCNCC3)c2)cnc1N)c1c(Cl)ccc(F)c1Cl [Crizotinib] (partner 1 µM)"
  target.desc: "PC-14"
  val: 0.81
- compound: "NC(=O)Nc1cc(-c2cccc(F)c2)sc1C(=O)N[C@H]1CCCNC1 [AZD7762] + CC1(C)CCC(c2ccc(Cl)cc2)=C(CN2CCN(c3ccc(C(=O)NS(=O)(=O)c4ccc(N[C@H](CCN5CCOCC5)CSc5ccccc5)c(S(=O)(=O)C(F)(F)F)c4)cc3)CC2)C1 [Navitoclax] (partner 0.5 µM)"
  target.desc: "PC-14"
  val: 0.895
- compound: "NC(=O)Nc1cc(-c2cccc(F)c2)sc1C(=O)N[C@H]1CCCNC1 [AZD7762] + O=C(CCCCCCC(=O)Nc1ccccc1)NO [Vorinostat] (partner 1 µM)"
  target.desc: "PC-14"
  val: 0.292

Prompt: Find the recorded relative viability belonging to NC(=O)Nc1cc(-c2cccc(F)c2)sc1C(=O)N[C@H]1CCCNC1 [AZD7762] + CC(=O)Nc1cccc(-n2c(=O)n(C3CC3)c(=O)c3c(Nc4ccc(I)cc4F)n(C)c(=O)c(C)c32)c1 [Trametinib] (partner 0.02 µM) and report it.
Response: 0.236

* * *

Below is a list of entries, each paired with its recorded relative viability value.
- System: LOU-NH91
- procedure.text: relative viability (nuclei count vs DMSO), 5 days (fraction); higher = more cells survive
- test.conditions: first compound 0.3162 µM
Number, no unit, nothing else.

Recorded results for 3 compounds are shown here.
- compound: "NC(=O)Nc1cc(-c2cccc(F)c2)sc1C(=O)N[C@H]1CCCNC1 [AZD7762] + CS(=O)(=O)N1CCN(Cc2cc3nc(-c4cccc5[nH]ncc45)nc(N4CCOCC4)c3s2)CC1 [Pictilisib] (partner 1 µM)"
  target.desc: "LOU-NH91"
  outcome.measure: "relative viability"
  val: 0.489
- compound: "NC(=O)Nc1cc(-c2cccc(F)c2)sc1C(=O)N[C@H]1CCCNC1 [AZD7762] + Nc1ncn([C@H]2C[C@H](O)[C@@H](CO)O2)c(=O)n1 [Decitabine] (partner 2 µM)"
  target.desc: "LOU-NH91"
  outcome.measure: "relative viability"
  val: 0.761
- compound: "NC(=O)Nc1cc(-c2cccc(F)c2)sc1C(=O)N[C@H]1CCCNC1 [AZD7762] + CC(=O)Nc1cccc(-n2c(=O)n(C3CC3)c(=O)c3c(Nc4ccc(I)cc4F)n(C)c(=O)c(C)c32)c1 [Trametinib] (partner 0.02 µM)"
  target.desc: "LOU-NH91"
  outcome.measure: "relative viability"
  val: 0.66

Then there is this compound:
Prompt: Find the recorded relative viability belonging to NC(=O)Nc1cc(-c2cccc(F)c2)sc1C(=O)N[C@H]1CCCNC1 [AZD7762] + CC(=O)c1c(C)c2cnc(Nc3ccc(N4CCNCC4)cn3)nc2n(C2CCCC2)c1=O [Palbociclib] (partner 0.5 µM) and report it.
Response: 0.609
